Values from paper PMC5742115

# study.system: human CYP11B1 (Homo sapiens)
# assay.overview: CYP11B1 inhibition assay in V79MZh cells
# experimental.setup: human CYP11B1 expressed in hamster V79MZh cells; mean of at least three experiments
Listed here: items and their measured IC50.
State just the number; it will be interpreted in µM.

>>> reading("CC(C)CC(=O)Nc1ccc(Cc2ccncc2)cc1 [Compound 8]")
3.04

Task: API: value(readout=IC50, system=human CYP11B1 (Homo sapiens)) for record CC(OCc1ccc(F)cc1)n1ccnc1 (stereo not drawn) [Compound 9]
Output: 0.21

Task: Quick one: COc1cc(Cl)c(S(=O)(=O)n2ccnc2)cc1Cl [Compound 10]
Output: 0.13

###

# study.system: Human CYP17 (Homo sapiens, UniProt P05093)
# Construct: made in house; host or cells: Escherichia coli (5,000 g sediment of the homogenate)
# Sequence (P05093 whole entry): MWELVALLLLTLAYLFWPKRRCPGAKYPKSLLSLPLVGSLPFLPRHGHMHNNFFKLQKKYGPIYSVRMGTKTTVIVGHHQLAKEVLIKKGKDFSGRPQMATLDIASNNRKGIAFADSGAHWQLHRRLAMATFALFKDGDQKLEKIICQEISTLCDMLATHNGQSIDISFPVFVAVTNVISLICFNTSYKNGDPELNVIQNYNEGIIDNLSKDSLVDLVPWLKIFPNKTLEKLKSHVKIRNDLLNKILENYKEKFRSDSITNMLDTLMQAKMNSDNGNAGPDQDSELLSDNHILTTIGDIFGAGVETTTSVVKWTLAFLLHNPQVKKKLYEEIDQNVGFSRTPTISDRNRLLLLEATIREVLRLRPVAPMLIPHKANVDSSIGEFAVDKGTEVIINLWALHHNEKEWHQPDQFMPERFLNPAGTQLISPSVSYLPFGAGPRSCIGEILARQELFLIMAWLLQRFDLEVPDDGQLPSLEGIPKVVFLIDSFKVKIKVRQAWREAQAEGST
# assay.overview: CYP17 inhibition assay
# Assay type: biochemical
# experimental.setup: at 10 μM concentration; human CYP17 from Escherichia coli; n.i. = not inhibited
reported.endpoint: CYP17 inhibition

>>> reading("CC(OCc1ccc(F)cc1)n1ccnc1 (stereo not shown) [Compound 9]")
"n.i."
>>> reading("c1ccc2c(-c3nn4cnnc4s3)cccc2c1 [Compound 12]")
"n.i."
>>> reading("COc1cc(Cl)c(S(=O)(=O)n2ccnc2)cc1Cl [Compound 10]")
"n.i."

###

# study.system: human CYP11B1 (Homo sapiens, UniProt P15538)
# Construct: expressed in transfected cells; host or cells: hamster V79MZh cells
# Sequence (P15538 25-503): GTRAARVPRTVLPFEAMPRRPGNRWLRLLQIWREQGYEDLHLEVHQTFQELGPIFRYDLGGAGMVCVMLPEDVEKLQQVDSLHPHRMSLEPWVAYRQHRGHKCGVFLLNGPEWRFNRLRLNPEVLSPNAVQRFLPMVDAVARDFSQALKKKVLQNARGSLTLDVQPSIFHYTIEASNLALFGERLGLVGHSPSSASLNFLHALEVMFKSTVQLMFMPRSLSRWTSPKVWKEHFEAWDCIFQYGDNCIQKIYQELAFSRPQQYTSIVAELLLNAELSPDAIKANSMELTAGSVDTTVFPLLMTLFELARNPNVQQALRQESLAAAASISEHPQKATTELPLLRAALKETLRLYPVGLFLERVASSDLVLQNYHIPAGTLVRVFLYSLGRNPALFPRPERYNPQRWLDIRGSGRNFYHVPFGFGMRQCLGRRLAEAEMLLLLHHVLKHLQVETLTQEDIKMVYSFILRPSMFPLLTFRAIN
# assay.overview: CYP11B1 inhibition assay in V79MZh cells
# Type: cell-based
# experimental.setup: at 10 μM concentration; V79MZh cells
Listed here: items and their measured inhibition at 10 µM.

Here is how some molecules turned out for inhibition at 10 µM.
>>> reading("CC(C)CC(=O)Nc1ccc(Cc2ccncc2)cc1 [Compound 8]")
"> 50%"
>>> reading("c1ccc2c(-c3nn4cnnc4s3)cccc2c1 [Compound 12]")
"33%"
>>> reading("COc1cc(Cl)c(S(=O)(=O)n2ccnc2)cc1Cl [Compound 10]")
"> 50%"

# context switch: different molecule, same inhibition at 10 µM
Task: # query: inhibition at 10 µM of entry CC(OCc1ccc(F)cc1)n1ccnc1 (stereo not shown) [Compound 9]
Output: > 50%

###

# study.system: human CYP11B2 (Homo sapiens)
# Sequence (P19099 25-503): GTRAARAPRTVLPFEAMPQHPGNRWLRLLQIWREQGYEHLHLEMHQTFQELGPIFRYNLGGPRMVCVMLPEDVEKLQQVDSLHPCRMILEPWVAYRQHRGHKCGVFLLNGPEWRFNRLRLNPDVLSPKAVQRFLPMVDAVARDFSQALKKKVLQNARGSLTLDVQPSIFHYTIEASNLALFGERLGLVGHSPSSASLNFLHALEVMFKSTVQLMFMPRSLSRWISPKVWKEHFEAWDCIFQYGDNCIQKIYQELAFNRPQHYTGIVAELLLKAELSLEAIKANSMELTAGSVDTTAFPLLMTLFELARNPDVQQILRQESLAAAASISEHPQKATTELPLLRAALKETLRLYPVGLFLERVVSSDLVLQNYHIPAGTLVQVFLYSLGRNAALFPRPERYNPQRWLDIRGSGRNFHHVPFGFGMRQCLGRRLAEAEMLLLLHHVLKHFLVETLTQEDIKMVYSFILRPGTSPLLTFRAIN
# assay.overview: CYP11B2 inhibition assay in V79MZh cells
# experimental.setup: human CYP11B2 expressed in hamster V79MZh cells; mean of at least three experiments
Listed here: items and their measured pIC50.
For clarity, pIC50 is expressed as the negative log10 of concentration in mol/L.

>>> reading("CC(OCc1ccc(F)cc1)n1ccnc1 (stereo not shown) [Compound 9]")
7.10
>>> reading("COc1cc(Cl)c(S(=O)(=O)n2ccnc2)cc1Cl [Compound 10]")
6.96
>>> reading("CN(C)C(c1ccccc1)c1nnnn1-c1ccc(Cl)cc1 (stereo not shown) [Compound 11]")
4.81

Task: API: value(readout=pIC50, system=human CYP11B2 (Homo sapiens)) for record CC(C)CC(=O)Nc1ccc(Cc2ccncc2)cc1 [Compound 8]
Output: 5.56
